# Target or system: T1, B-cat-Halo (beta-catenin HaloTag fusion expressed in HEK293 cells) (UniProt P35222 1-781)
# T1 sequence (looked up): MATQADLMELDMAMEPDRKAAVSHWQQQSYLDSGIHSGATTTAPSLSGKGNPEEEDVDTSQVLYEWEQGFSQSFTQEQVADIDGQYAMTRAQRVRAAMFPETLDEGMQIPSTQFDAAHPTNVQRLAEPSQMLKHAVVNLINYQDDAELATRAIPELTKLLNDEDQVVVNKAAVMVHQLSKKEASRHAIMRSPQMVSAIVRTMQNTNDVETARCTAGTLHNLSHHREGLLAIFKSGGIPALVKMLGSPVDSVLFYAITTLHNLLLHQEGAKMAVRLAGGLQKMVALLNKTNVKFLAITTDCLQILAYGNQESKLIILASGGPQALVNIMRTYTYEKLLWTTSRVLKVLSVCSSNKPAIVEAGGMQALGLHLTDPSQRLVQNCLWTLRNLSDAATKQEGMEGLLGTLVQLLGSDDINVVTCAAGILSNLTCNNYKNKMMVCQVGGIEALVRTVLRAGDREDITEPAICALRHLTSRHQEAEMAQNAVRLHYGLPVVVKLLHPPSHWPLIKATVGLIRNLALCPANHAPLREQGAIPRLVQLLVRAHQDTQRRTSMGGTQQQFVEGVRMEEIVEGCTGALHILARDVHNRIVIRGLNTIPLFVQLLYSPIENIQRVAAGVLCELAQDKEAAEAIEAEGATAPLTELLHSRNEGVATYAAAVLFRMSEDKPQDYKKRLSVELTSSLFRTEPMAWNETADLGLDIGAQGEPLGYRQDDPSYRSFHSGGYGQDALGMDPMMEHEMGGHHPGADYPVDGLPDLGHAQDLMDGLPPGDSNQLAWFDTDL
# Assay details: cell-based or functional assay
Starred links: 1 amine or outer side, 2 acyl side, 3 side chain; linkers in the order of their positions; H or OH if unused. Positions of bridges follow the written chain, without caps; N, C: chain ends. Non-standard residues stand in square brackets, D forms with d. Primed or numbered codes have the meaning given here. PyrS2″ = (S)-3-amino-1-((pent-4-en-1-yloxy)carbonyl)pyrrolidine-3-carboxylic acid (stapling residue), C=CCCCOC(=O)N1CC[C@@](N[*:1])(C(=O)[*:2])C1; (bismethoxyethylamine)GlnR = [bismethoxyethylamine]GlnR, N5,N5-bis(2-methoxyethyl)-L-glutamine, COCCN(CCOC)C(=O)CC[C@H](N[*:1])C(=O)[*:2]; B5(4) = 2,2-bis(4-pentenyl)glycine = 2-amino-2-(pent-4-en-1-yl)hept-6-enoic acid (stitching residue), C=CCCCC(CCCC=C)(N[*:1])C(=O)[*:2]; (AcPpz)GlnR = [AcPpz]GlnR, (S)-5-(4-acetylpiperazin-1-yl)-2-amino-5-oxopentanoic acid, CC(=O)N1CCN(C(=O)CC[C@H](N[*:1])C(=O)[*:2])CC1; (Morph)GlnR″ = [Morph]GlnR, (S)-2-amino-5-morpholino-5-oxopentanoic acid, O=C(CC[C@H](N[*:1])C(=O)[*:2])N1CCOCC1; Phe(3-COOH) = N[C@@H](Cc1cccc(C(=O)O)c1)C(=O)O; Bta = N[C@@H](Cc1csc2ccccc12)C(=O)O; αAllylPro = C=CC[C@@]1(C(=O)O)CCCN1; tBuAla = CC(C)(C)C[C@H](N)C(=O)O; 3Thi = N[C@@H](Cc1ccsc1)C(=O)O; Nle = CCCC[C@H](N)C(=O)O; Abu = CC[C@H](N)C(=O)O; Aib = CC(C)(N)C(=O)O
Endpoint label: NanoBRET Abs IC50 (µM)
Kindly provide the numeric value in µM only, without the unit symbol.

Item Ac-[αAllylPro]D[tBuAla][B5(4)]D[Phe(3-COOH)][Aib]AF[Abu][PyrS2″][3Thi][Bta][(Morph)GlnR″]-NH2 (staple 1-4, 4-11) [I-2558] has what recorded NanoBRET Abs IC50?
14.7

How about Ac-[αAllylPro]D[tBuAla][B5(4)]D[Phe(3-COOH)][Aib]AF[Nle][PyrS2″][3Thi][Bta][(bismethoxyethylamine)GlnR]-NH2 (staple 1-4, 4-11) [I-2554] ?
3.3

Note, next up: Ac-[αAllylPro]D[tBuAla][B5(4)]D[Phe(3-COOH)][Aib]AF[Abu][PyrS2″][3Thi][Bta][(bismethoxyethylamine)GlnR]-NH2 (staple 1-4, 4-11) [I-2559]
3.8

# repeat for Ac-[αAllylPro]D[tBuAla][B5(4)]D[Phe(3-COOH)][Aib]AF[Nle][PyrS2″][3Thi][Bta][(AcPpz)GlnR]-NH2 (staple 1-4, 4-11) [I-2556]
7
